Tested on: Marburg virus (MARV)
Assay: organism not typed
Format: cell-based
Settings: Vero, 72 h, read-out: Percent viral inhibition MARV
property: inhibition at 1 µM (%)
Lab book: enter the figure in %, no units written.

inhibition at 1 µM in this record for CC(CCN(C)C)N1CCN(c2ncc(Oc3cc(CN4CCC(CC(=O)O)CC4)cc(-c4cc(Cl)cc(Cl)c4)n3)cn2)CC1 (stereo not shown) : 67.4

Measured inhibition at 1 µM of CC(=O)NCC1CCN(Cc2cc(Oc3cnc(N4CCN(C)CC4)nc3)nc(-c3cc(Cl)cc(Cl)c3)c2)CC1 : 37.8

Lab book: inhibition at 1 µM of CCC(CN1CCN(c2ccc(Oc3cc(CN4CCC(CNC(C)=O)CC4)cc(-c4cc(Cl)cc(Cl)c4)n3)cn2)CC1)C(=O)O (stereo not shown) noted as 49.1

Entry CN1CCN(c2ncc(Oc3cc(CN4CCC(CNC(=O)NS(C)(=O)=O)CC4)cc(-c4cc(Cl)cc(Cl)c4)n3)cn2)CC1 ; inhibition at 1 µM = 63.9

Value of measured inhibition at 1 µM for the entry CNC(=O)NCC1CCN(Cc2cc(Oc3cnc(N4CCN(CCCS(C)(=O)=O)CC4)nc3)nc(-c3cc(Cl)cc(Cl)c3)c2)CC1 : 26.5

Record CC(=O)NCC1CCN(Cc2cc(Oc3cnc(N4CCN(C5CC(C(=O)O)C5)CC4)nc3)nc(-c3cc(Cl)cc(Cl)c3)c2)CC1 (stereo not shown) , field inhibition at 1 µM: 38.5

Item: CN1CCN(c2cnc(Oc3cc(CN4CCC(CC(=O)O)CC4)cc(-c4cc(Cl)cc(Cl)c4)n3)cn2)CC1 | inhibition at 1 µM: 52.1

The compound listed as CC(=O)NCC1CCN(Cc2cc(Oc3cnc(N4CCN(CCC(N)=O)CC4)nc3)nc(-c3cc(Cl)cc(Cl)c3)c2)CC1 has a reported inhibition at 1 µM of 58.6

Attention now turns to another entry.
// inhibition at 1 µM value for CC(=O)NCC1CCN(Cc2cc(Oc3ccc(NCC(C)(C)N)nc3)cc(-c3cc(Cl)cc(Cl)c3)c2)CC1 : 0

* * *

Tested on: Chikungunya virus (CHIKV)
Test: microbe, parasite or virus in culture
Assay type: cell-based
Conditions: Chikungunya virus, Vero, 48 h, read-out: Percent viral inhibition CHKV
Form field: inhibition at 1 µM (one value per entry).

The value of inhibition at 1 µM measured for the compound CN1CCN(c2ncc(Oc3cc(CN4CCO[C@H](CCO)CC4)cc(-c4cc(Cl)cc(Cl)c4)n3)cn2)CC1 turned out to be 14.1%

So for NC(=O)OCCN1CCN(Cc2cc(Oc3cnc(N4CCN(CCC(=O)O)CC4)nc3)nc(-c3cc(Cl)cc(Cl)c3)c2)CC1 , the logged inhibition at 1 µM turned out to be 36.8%

Turning now to a further record.
get_value(item= CC(CC1CCN(Cc2cc(Oc3cnc(N4CCCN(C)CC4)cn3)nc(-c3cc(Cl)cc(Cl)c3)c2)CC1)C(=O)O (stereo not drawn) , readout=inhibition at 1 µM) returns 22.7%

* * *

System: Marburg virus (MARV)
Experiment: organism not typed
Format: cell-based
Details: Vero, 72 h, read-out: Percent viral inhibition MARV
Documented inhibition at 1 µM across a set of compounds
Report as a plain number; the unit % is understood.

Look over these answered cases.
inhibition at 1 µM reported for this compound CC(=O)NCC1CCN(Cc2cc(Oc3cnc(N4CCN(CCC(=O)O)CC4)nc3)cc(-c3cc(Cl)cc(Cl)c3)c2)CC1 : 60.3

For O=C(O)CC1CCN(Cc2cc(Oc3cnc(N4CCN(CC5(O)CC5)CC4)nc3)nc(-c3cc(Cl)cc(Cl)c3)c2)CC1 the compound record lists inhibition at 1 µM as 23.7

---
Memo: C[C@@H](CC1CCN(Cc2cc(Oc3cnc(N4CCN(C)CC4)nc3)nc(-c3cc(Cl)cc(Cl)c3)c2)CC1)C(=O)O , reported inhibition at 1 µM: 45.1

inhibition at 1 µM reading for O=C(O)CC1CCN(Cc2cc(Oc3ccc(N4CCN(CCO)CC4)nc3)nc(-c3cc(Cl)cc(Cl)c3)c2)CC1 : 45
